Source of measurements: patent US7482351B2

system: U2OS (bone osterosarcoma) cells; experiment: in vitro inhibition of U2OS cells; format: cell-based
pIC50: −log10 of the molar value.
Result Type: pIC50

• CN(c1ccc2c(c1)OCCO2)c1nc(-c2ccoc2)ncc1F [Compound 26] = ≥ 6.00
• CN(c1ccc2c(c1)OCCO2)c1nc(-c2ccco2)ncc1F [Compound 22] = ≥ 5.00
• CN(c1ccc2c(c1)OCCO2)c1nc(Cl)ncc1F [Compound 1] = ≥ 6.00
• CN(c1ccc2c(c1)OCCO2)c1nc(-c2cccc(N)c2)ncc1F [Compound 23] = ≥ 5.00
• CN(c1ccc2c(c1)OCCO2)c1nc(-c2ccc[nH]2)ncc1F [Compound 31] = ≥ 6.00
• COc1ccc(-c2ncc(F)c(N(C)c3ccc4c(c3)OCCO4)n2)cc1OC [Compound 20] = < 4.70
• CN(c1ccc2c(c1)OCCO2)c1nc(-c2ccsc2)ncc1F [Compound 25] = ≥ 6.00
• CN(c1ccc2c(c1)OCCO2)c1nc(-c2ccc3c(c2)OCO3)ncc1F [Compound 21] = ≥ 4.70

###

Test system: SKMEL5 (human melanoma)
Experiment: additional cell line SKMEL5
Type: cell-based
Description: Compound 1 was tested against the following additional cell lines: ACHN (renal cell adenocarcimona), JAR (placental choriocarcinoma), MCF7 (estrogen-dependent breast adenocarcinoma), MDA-MB-231 (estrogen independent breast adenocarcinoma), SKMEL28 (human melanoma) and SKMEL5 (human melanoma). In all cases, the IC50 was less than 1 μM.
Result Type: IC50

• CN(c1ccc2c(c1)OCCO2)c1nc(Cl)ncc1F = < 1 µM

###

system: A549 (lung carcinoma) cells; experiment: in vitro inhibition of A549 cells; type: cell-based
Measured IC50, listed per entry for reference.
Result Type: IC50

• COc1ccc(N(C)c2nc(Cl)ncc2F)cc1Cl = ≤ 1 µM
• CN(c1ccc2c(c1)OCCO2)c1nc(-c2nccs2)ncc1F = ≤ 10 µM
• COc1cc(N(C)c2nc(Cl)ncc2F)cc(OC)c1OC = > 20 µM
• COc1cc(OC)cc(N(C)c2nc(Cl)ncc2F)c1 = > 20 µM
• Cc1cc(N(C)c2nc(Cl)ncc2F)cc(C)c1Cl = > 20 µM
• CN(c1ccc2c(c1)OCCO2)c1nc(-c2ccncc2)ncc1F = ≤ 1 µM
• CNCc1sccc1-c1ncc(F)c(N(C)c2ccc3c(c2)OCCO3)n1 = ≤ 10 µM
• CN(c1ccc2c(c1)OCCO2)c1nc(-c2ccc(Cl)s2)ncc1F = > 20 µM
• Cc1ccc(-c2ncc(F)c(N(C)c3ccc4c(c3)OCCO4)n2)s1 = ≤ 10 µM
• COc1c(Cl)cc(N(C)c2nc(Cl)ncc2F)cc1Cl = 1 to 10 µM
• CN(c1ccc2c(c1)OCCO2)c1nc(-c2ccc[nH]2)ncc1F = ≤ 1 µM
• CN(c1ccc2c(c1)OCCO2)c1nc(-c2cccnc2)ncc1F = ≤ 10 µM
• COc1cc(N(C)c2nc(Cl)ncc2F)ccc1Cl = > 20 µM
• Cc1cscc1-c1ncc(F)c(N(C)c2ccc3c(c2)OCCO3)n1 = ≤ 1 µM
• CN(c1ccc2c(c1)OCCO2)c1nc(Cl)ncc1F = ≤ 1 µM
• CN(c1ccc2c(c1)OCCO2)c1nc(-c2csc3ccccc23)ncc1F = > 20 µM
• CN(c1ccc2c(c1)OCCO2)c1nc(-c2ccsc2)ncc1F = ≤ 1 µM
• CN(c1ccc2c(c1)OCCO2)c1nc(-c2ccsc2C=O)ncc1F = ≤ 1 µM
• CN(c1ccc2c(c1)OCCO2)c1nc(-c2ccc3c(c2)OCO3)ncc1F = ≤ 10 µM
• CN(c1ccc2c(c1)OCCO2)c1nc(-c2ccccc2)ncc1F = ≤ 1 µM
• Cc1noc(C)c1-c1ncc(F)c(N(C)c2ccc3c(c2)OCCO3)n1 = ≤ 10 µM
• CCCN(c1ccc(OC)c(Cl)c1)c1nc(Cl)ncc1F = 1 to 10 µM
• COc1ccc(-c2ncc(F)c(N(C)c3ccc4c(c3)OCCO4)n2)cc1OC = > 20 µM
• CN(c1ccc2c(c1)OCCO2)c1nc(-c2cccc(N)c2)ncc1F = ≤ 1 µM
• CN(c1ccc2c(c1)OCCO2)c1nc(-c2ccco2)ncc1F = ≤ 1 µM
• COc1ncc(F)c(N(C)c2ccc3c(c2)OCCO3)n1 = ≤ 10 µM
• CN(c1ccc2c(c1)OCCO2)c1nc(-c2cc3ccccc3s2)ncc1F = > 20 µM
• CN(c1ccc2c(c1)OCCO2)c1nc(-c2cc[s+]([O-])c2)ncc1F (stereo not drawn) = ≤ 10 µM
• CN(c1ccc2c(c1)OCCO2)c1nc(-c2ccoc2)ncc1F = ≤ 1 µM
• COc1ccc(N(C)c2nc(Cl)ncc2F)cc1OC = ≤ 1 µM
